# target-or-test-system: β-secretase(BACE) (Homo sapiens)
# Construct: purchased Panvera
# Sequence (P56817 46-501): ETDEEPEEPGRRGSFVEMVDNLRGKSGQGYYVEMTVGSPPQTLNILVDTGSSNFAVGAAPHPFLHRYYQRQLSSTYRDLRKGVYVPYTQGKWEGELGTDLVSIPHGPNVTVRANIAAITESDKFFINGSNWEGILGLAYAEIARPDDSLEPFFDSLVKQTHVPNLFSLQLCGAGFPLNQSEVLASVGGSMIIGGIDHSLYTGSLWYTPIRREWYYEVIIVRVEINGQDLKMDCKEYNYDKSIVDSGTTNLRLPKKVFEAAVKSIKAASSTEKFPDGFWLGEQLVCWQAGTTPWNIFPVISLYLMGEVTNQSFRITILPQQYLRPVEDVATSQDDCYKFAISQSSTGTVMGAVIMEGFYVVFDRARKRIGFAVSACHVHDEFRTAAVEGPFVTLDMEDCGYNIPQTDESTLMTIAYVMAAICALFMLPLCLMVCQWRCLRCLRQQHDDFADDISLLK
# test: BACE FS1% Inhibition Assay
# Type: biochemical
# experimental-parameters: 0.3 μM test compound; FS1 substrate
quantity-measured: % Inhibition (FS)

For orientation, consider the following solved cases.
>  <molecule>
Cc1ccccc1-c1ccc2c(c1)CN(CCNC(=O)CCC(C)C)C(N)=N2

>  <target-or-test-system>
β-secretase(BACE) (Homo sapiens)

>  <% Inhibition (FS)>
68%

$$$$
>  <molecule>
CC(C)CCC(=O)NCCN1Cc2cc(-c3cnc4ccccc4c3)ccc2N=C1N

>  <target-or-test-system>
β-secretase(BACE) (Homo sapiens)

>  <% Inhibition (FS)>
35%

$$$$
>  <molecule>
CN(C(=O)CCC(C1CCCCC1)N1Cc2cc(Oc3ccccc3)ccc2N=C1N)c1ccc(C(=O)O)cc1 (stereo not shown)

>  <target-or-test-system>
β-secretase(BACE) (Homo sapiens)

>  <% Inhibition (FS)>
<30%

$$$$
>  <molecule>
NC1=Nc2ccc(-c3ccccc3Cl)cc2CN1CCNC(=O)C1CCC(C(F)(F)F)CC1 (stereo not shown)

>  <target-or-test-system>
β-secretase(BACE) (Homo sapiens)

>  <% Inhibition (FS)>
<30%

$$$$
>  <molecule>
COC1CCCC(C(=O)NCCN2Cc3cc(-c4ccccc4)ccc3N=C2N)C1 (stereo not shown)

>  <target-or-test-system>
β-secretase(BACE) (Homo sapiens)

>  <% Inhibition (FS)>
<30%

$$$$
>  <molecule>
NC1=Nc2ccc(-c3ccccc3)cc2CN1CCNC(=O)C1CCC(C(F)(F)F)CC1 (stereo not shown)

>  <target-or-test-system>
β-secretase(BACE) (Homo sapiens)

>  <% Inhibition (FS)>
<30%

$$$$

If you can, please state the reported % Inhibition (FS) value of COC1CCCC(C(=O)NCCN2Cc3cc(C4=CCCC4)ccc3N=C2N)C1 (stereo not shown) .
<30%

If you can, please state the reported % Inhibition (FS) value of NC1=Nc2ccc(-c3cnc4ccccc4c3)cc2CN1CCNC(=O)C1CCC1 .
<30%

If you can, please state the reported % Inhibition (FS) value of CC(=O)N1CCC(C(=O)NCCN2Cc3cc(-c4ccccc4C)ccc3N=C2N)CC1 .
<30%

If you can, please state the reported % Inhibition (FS) value of CN(C(=O)CCC(C)(C)N1Cc2cc(Oc3ccccc3)ccc2N=C1N)C1CCCCC1 .
14%

* * *

# target-or-test-system: β-secretase(BACE) (Homo sapiens)
# Construct: purchased Panvera
# test: BACE FS1% Inhibition Assay
# Assay type: biochemical
# experimental-parameters: 3 μM test compound; FS1 substrate; read-out: % Inhibition (FS) 3 μM
quantity-measured: inhibition at 3 µM (%)

For orientation, consider the following solved cases.
>  <molecule>
CN(C(=O)CCCN1Cc2cc(Oc3ccccc3)ccc2N=C1N)C1CCCCC1

>  <inhibition at 3 µM (%)>
102

$$$$
>  <molecule>
NC1=Nc2ccc(-c3cccc(CO)c3)cc2CN1CCNC(=O)CC1CCCC1

>  <inhibition at 3 µM (%)>
86

$$$$
>  <molecule>
CC(=O)Nc1ccccc1-c1ccc2c(c1)CN(Cc1cccc(C(=O)N(C)C3CCCCC3)c1)C(N)=N2

>  <inhibition at 3 µM (%)>
92

$$$$
>  <molecule>
NC1=Nc2ccc(Oc3ccccc3)cc2CN1C(CNC(=O)C(c1ccccc1)c1ccccc1)C1CCCCC1 (centres unmarked)

>  <inhibition at 3 µM (%)>
100

$$$$
>  <molecule>
CN(C(=O)CCC(C1CCOCC1)N1Cc2cc(Oc3ccccc3)ccc2N=C1N)C1CCCCC1 (centres unmarked)

>  <inhibition at 3 µM (%)>
125

$$$$

P = NC1=Nc2ccc(Oc3ccccc3)cc2CN1CCNC(=O)Nc1ccccc1
Q = NC1=Nc2ccc(Oc3ccccc3)cc2CN1CCNC(=O)c1ccccc1
Select the item whose inhibition at 3 µM value is smaller, choosing between P and Q . Respond with the label that goes with your answer.
Q
